- Test system: 947758-054-R-J2-PDC spheroid growth, percent test/control
- MEASUREMENT PROTOCOL: Anticancer human tumor 947758-054-R-J2-PDC patient-derived colon adenocarcinoma cell line growth inhibition [CLK]; active = viability on the fitted dose curve at most 10% of control; inactive = the rest
- EXPERIMENTAL CONTEXT: second compound 3.16 µM; first compound 0.003 µM; spheroids with HUVEC and MSC
API: response.call in active, inactive

Consider the following illustrative entries.
{"MOLECULE": "CC(C)CC(NC(=O)C(Cc1ccccc1)NC(=O)c1cnccn1)B(O)O (centres undefined) + CN1CCN(c2cc(C(=O)Nc3cc4cc(-c5cnn(C)c5)ccc4cn3)ccn2)CC1", "CATEGORY LABEL": "active"}
{"MOLECULE": "C=CC(=O)Nc1cc(Nc2nccc(-c3cn(C)c4ccccc34)n2)c(OC)cc1N(C)CCN(C)C + CNC(=O)c1ccc(Nc2nc(OC3CCCC3)c3c(-c4ccc5nc(C)oc5c4)c[nH]c3n2)c(OC)c1", "CATEGORY LABEL": "inactive"}
{"MOLECULE": "C=CC(=O)Nc1cc(Nc2nccc(-c3cn(C)c4ccccc34)n2)c(OC)cc1N(C)CCN(C)C + CN1CCN(c2cc(C(=O)Nc3cc4cc(-c5cnn(C)c5)ccc4cn3)ccn2)CC1", "CATEGORY LABEL": "active"}

Could you now consider this next molecule?
[Q] Look up the recorded call for CC(C)CC(NC(=O)C(Cc1ccccc1)NC(=O)c1cnccn1)B(O)O (centres undefined) + CNC(=O)c1ccc(Nc2nc(OC3CCCC3)c3c(-c4ccc5nc(C)oc5c4)c[nH]c3n2)c(OC)c1 in this test.
[A] active

* * *

- Test system: 947758-054-R-J2-PDC spheroid growth, percent test/control
- MEASUREMENT PROTOCOL: Anticancer human tumor 947758-054-R-J2-PDC cell line growth inhibition [CLK];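 also: spheroids exposed to compounds for one week before readout; 100% = DMSO vehicle control wells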
- EXPERIMENTAL CONTEXT: second compound 1 µM; first compound 1 µM; stronger effect = lower value; spheroids with HUVEC and MSC
Reported viability, T/C values are given for each entry in this list.
Form entry: value (%) — number only.

[Q] May I ask what viability, T/C has been recorded for C#Cc1c(F)ccc2cc(O)cc(-c3ncc4c(N5CC6CCC(C5)N6)nc(OCC56CCCN5CC(F)C6)nc4c3F)c12 (centres undefined) + CN1CCN(c2cc(C(=O)Nc3cc4cc(-c5cnn(C)c5)ccc4cn3)ccn2)CC1 ?
[A] 0.22

* * *

- System: 947758-054-R-J2-PDC spheroid growth, percent test/control
- MEASUREMENT PROTOCOL: Anticancer human tumor 947758-054-R-J2-PDC cell line growth inhibition [CLK];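 also: spheroids exposed to compounds for one week before readout; 100% = DMSO vehicle control wells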
- EXPERIMENTAL CONTEXT: second compound 3.16 µM; first compound 1 µM; stronger effect = lower value; spheroids with HUVEC and MSC
MEASURED METRIC: viability, T/C (%)
Dear colleague, please return just the value in %, with no unit written.

{"MOLECULE": "COC1C=CCC(C)C(C)S(=O)(=O)NC(=O)c2ccc3c(c2)N(CC2CCC21)CC1(CCCc2cc(Cl)ccc21)CO3 (configuration not stated) + CNC(=O)c1ccc(Nc2nc(OC3CCCC3)c3c(-c4ccc5nc(C)oc5c4)c[nH]c3n2)c(OC)c1", "RESULT VALUE": 18.2}

[Q] Dear colleague, I am looking for the recorded viability, T/C of the following molecule: CC1(C)CCC(CN2CCN(c3ccc(C(=O)NS(=O)(=O)c4ccc(NCC5CCOCC5)c([N+](=O)[O-])c4)c(Oc4cnc5[nH]ccc5c4)c3)CC2)=C(c2ccc(Cl)cc2)C1 + CNC(=O)c1ccc(Nc2nc(OC3CCCC3)c3c(-c4ccc5nc(C)oc5c4)c[nH]c3n2)c(OC)c1
[A] 48.4

* * *

- Test system: 947758-054-R-J2-PDC spheroid growth, percent test/control
- MEASUREMENT PROTOCOL: Anticancer human tumor 947758-054-R-J2-PDC cell line growth inhibition [CLK];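 also: spheroids exposed to compounds for one week before readout; 100% = DMSO vehicle control wells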
- EXPERIMENTAL CONTEXT: second compound 3.16 µM; first compound 1 µM; stronger effect = lower value; spheroids with HUVEC and MSC
Here, each record is paired with measured viability, T/C data.
Your answer is read as %, so omit the unit and give the number.

{"COMPOUND": "CC(Nc1ccc2c(c1)OCCn1cc(N3C(=O)OCC3C(F)F)nc1-2)C(N)=O (stereo not given) + CNC(=O)c1ccc(Nc2nc(OC3CCCC3)c3c(-c4ccc5nc(C)oc5c4)c[nH]c3n2)c(OC)c1", "RESULT VALUE": 8.23}

[Q] What value of measured viability, T/C is listed for C#Cc1c(F)ccc2cc(O)cc(-c3ncc4c(N5CC6CCC(C5)N6)nc(OCC56CCCN5CC(F)C6)nc4c3F)c12 (stereo not given) + CNC(=O)c1ccc(Nc2nc(OC3CCCC3)c3c(-c4ccc5nc(C)oc5c4)c[nH]c3n2)c(OC)c1 ?
[A] 46.7

[Q] Fill blank: measured viability, T/C of the compound Nc1ccccc1NC(=O)c1ccc(CNC(=O)OCc2cccnc2)cc1 + CN1CCN(c2cc(C(=O)Nc3cc4cc(-c5cnn(C)c5)ccc4cn3)ccn2)CC1 is ____.
[A] 0.28

[Q] I have this compound here, CCN1CCN(Cc2ccc(Nc3ncc(F)c(-c4cc(F)c5nc(C)n(C(C)C)c5c4)n3)nc2)CC1 + CNC(=O)c1ccc(Nc2nc(OC3CCCC3)c3c(-c4ccc5nc(C)oc5c4)c[nH]c3n2)c(OC)c1 , and I need its recorded viability, T/C.
[A] 25.1

[Q] What does the record list as viability, T/C for C=C(F)C(=O)N1CCN(c2nc(OCC3CCCN3C)nc3c2CCN(c2cccc4cccc(Cl)c24)C3)CC1CC#N (stereo not given) + CNC(=O)c1ccc(Nc2nc(OC3CCCC3)c3c(-c4ccc5nc(C)oc5c4)c[nH]c3n2)c(OC)c1 ?
[A] 47.8

[Q] Would you mind telling me what viability, T/C value was observed for Nc1ccn(C2OC(CO)C(O)C2(F)F)c(=O)n1 (stereo not given) + CN1CCN(c2cc(C(=O)Nc3cc4cc(-c5cnn(C)c5)ccc4cn3)ccn2)CC1 ?
[A] 0.21

[Q] What value of viability, T/C has been reported for the following compound? COc1cccc2c1C(=O)c1c(O)c3c(c(O)c1C2=O)CC(O)(C(=O)CO)CC3OC1CC(N)C(O)C(C)O1 (stereo not given) + CNC(=O)c1ccc(Nc2nc(OC3CCCC3)c3c(-c4ccc5nc(C)oc5c4)c[nH]c3n2)c(OC)c1
[A] 0.27

[Q] Query: viability, T/C; subject: CCCS(=O)(=O)Nc1ccc(F)c(C(=O)c2c[nH]c3ncc(-c4ccc(Cl)cc4)cc23)c1F + CNC(=O)c1ccc(Nc2nc(OC3CCCC3)c3c(-c4ccc5nc(C)oc5c4)c[nH]c3n2)c(OC)c1
[A] 13.1

[Q] Using the record for CC(CO)NC(=O)c1cc(-c2ccc(Cl)cc2)nn(-c2cnn(C)c2)c1=O (stereo not given) + CNC(=O)c1ccc(Nc2nc(OC3CCCC3)c3c(-c4ccc5nc(C)oc5c4)c[nH]c3n2)c(OC)c1 , report its viability, T/C.
[A] 56.6

[Q] Endpoint output: viability, T/C of C#Cc1c(F)ccc2cc(O)cc(-c3ncc4c(N5CC6CCC(C5)N6)nc(OCC56CCCN5CC(F)C6)nc4c3F)c12 (stereo not given) + CN1CCN(c2cc(C(=O)Nc3cc4cc(-c5cnn(C)c5)ccc4cn3)ccn2)CC1 . Value?
[A] 0.2

* * *

- System: 947758-054-R-J2-PDC spheroid growth, percent test/control
- MEASUREMENT PROTOCOL: Anticancer human tumor 947758-054-R-J2-PDC cell line growth inhibition [CLK];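 also: spheroids exposed to compounds for one week before readout; 100% = DMSO vehicle control wells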
- EXPERIMENTAL CONTEXT: second compound 3.16 µM; first compound 1 µM; stronger effect = lower value; spheroids with HUVEC and MSC
MEASURED METRIC: viability, T/C

Example cases with answers are listed next.
{"COMPOUND": "O=C(c1cc(Cc2n[nH]c(=O)c3ccccc23)ccc1F)N1CCN(C(=O)C2CC2)CC1 + CN1CCN(c2cc(C(=O)Nc3cc4cc(-c5cnn(C)c5)ccc4cn3)ccn2)CC1", "MEASURED METRIC": "viability, T/C", "RESULT VALUE": "0.18%"}
{"COMPOUND": "CC(Nc1ccc2c(c1)OCCn1cc(N3C(=O)OCC3C(F)F)nc1-2)C(N)=O (configuration not stated) + CN1CCN(c2cc(C(=O)Nc3cc4cc(-c5cnn(C)c5)ccc4cn3)ccn2)CC1", "MEASURED METRIC": "viability, T/C", "RESULT VALUE": "0.22%"}
{"COMPOUND": "CC1COCCN1c1cc(C2(S(C)(=N)=O)CC2)nc(-c2ccnc3[nH]ccc23)n1 (configuration not stated) + CN1CCN(c2cc(C(=O)Nc3cc4cc(-c5cnn(C)c5)ccc4cn3)ccn2)CC1", "MEASURED METRIC": "viability, T/C", "RESULT VALUE": "1.46%"}
{"COMPOUND": "CCc1c2c(nc3ccc(O)cc13)-c1cc3c(c(=O)n1C2)COC(=O)[C@]3(O)CC + CNC(=O)c1ccc(Nc2nc(OC3CCCC3)c3c(-c4ccc5nc(C)oc5c4)c[nH]c3n2)c(OC)c1", "MEASURED METRIC": "viability, T/C", "RESULT VALUE": "0.54%"}
{"COMPOUND": "C=C(F)C(=O)N1CCN(c2nc(OCC3CCCN3C)nc3c2CCN(c2cccc4cccc(Cl)c24)C3)CC1CC#N (configuration not stated) + CN1CCN(c2cc(C(=O)Nc3cc4cc(-c5cnn(C)c5)ccc4cn3)ccn2)CC1", "MEASURED METRIC": "viability, T/C", "RESULT VALUE": "0.24%"}

[Q] Could you tell me which viability, T/C is on file for CC(CO)NC(=O)c1cc(-c2ccc(Cl)cc2)nn(-c2cnn(C)c2)c1=O (configuration not stated) + CN1CCN(c2cc(C(=O)Nc3cc4cc(-c5cnn(C)c5)ccc4cn3)ccn2)CC1 ?
[A] 0.24%

[Q] Report viability, T/C for CC1(C)CCC(CN2CCN(c3ccc(C(=O)NS(=O)(=O)c4ccc(NCC5CCOCC5)c([N+](=O)[O-])c4)c(Oc4cnc5[nH]ccc5c4)c3)CC2)=C(c2ccc(Cl)cc2)C1 + CN1CCN(c2cc(C(=O)Nc3cc4cc(-c5cnn(C)c5)ccc4cn3)ccn2)CC1 please.
[A] 0.2%
